- testedTarget: rh integrin α4β7 (Homo sapiens, UniProt P13612+P26010)
- Construct: purchased R&D Systems 5397-A30
- Sequence (P13612 34-977 limits assumed): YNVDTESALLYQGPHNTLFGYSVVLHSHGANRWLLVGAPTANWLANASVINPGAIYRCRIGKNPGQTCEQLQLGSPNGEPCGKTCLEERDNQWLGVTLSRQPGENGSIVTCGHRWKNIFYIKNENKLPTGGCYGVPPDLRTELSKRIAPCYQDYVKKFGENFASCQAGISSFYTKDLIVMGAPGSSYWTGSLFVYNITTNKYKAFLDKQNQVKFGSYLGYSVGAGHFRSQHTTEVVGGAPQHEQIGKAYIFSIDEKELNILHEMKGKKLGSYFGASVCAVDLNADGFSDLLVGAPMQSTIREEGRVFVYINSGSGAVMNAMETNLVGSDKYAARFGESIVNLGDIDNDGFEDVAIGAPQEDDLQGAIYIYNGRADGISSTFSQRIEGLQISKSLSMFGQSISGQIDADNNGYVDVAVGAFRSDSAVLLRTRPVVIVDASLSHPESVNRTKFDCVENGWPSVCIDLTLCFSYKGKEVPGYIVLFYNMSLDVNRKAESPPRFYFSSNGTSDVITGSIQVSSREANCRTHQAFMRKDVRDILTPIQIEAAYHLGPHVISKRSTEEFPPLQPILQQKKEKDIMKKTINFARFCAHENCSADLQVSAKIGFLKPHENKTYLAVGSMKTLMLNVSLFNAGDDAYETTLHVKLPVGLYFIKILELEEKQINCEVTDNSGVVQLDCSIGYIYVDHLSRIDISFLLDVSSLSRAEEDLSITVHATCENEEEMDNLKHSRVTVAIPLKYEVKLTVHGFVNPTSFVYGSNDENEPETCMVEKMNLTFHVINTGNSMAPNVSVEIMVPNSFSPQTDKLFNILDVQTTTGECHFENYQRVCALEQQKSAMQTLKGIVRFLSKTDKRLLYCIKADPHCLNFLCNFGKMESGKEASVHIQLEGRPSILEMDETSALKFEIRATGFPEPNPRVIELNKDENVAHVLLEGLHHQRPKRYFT
- Sequence (P26010 20-723 limits assumed): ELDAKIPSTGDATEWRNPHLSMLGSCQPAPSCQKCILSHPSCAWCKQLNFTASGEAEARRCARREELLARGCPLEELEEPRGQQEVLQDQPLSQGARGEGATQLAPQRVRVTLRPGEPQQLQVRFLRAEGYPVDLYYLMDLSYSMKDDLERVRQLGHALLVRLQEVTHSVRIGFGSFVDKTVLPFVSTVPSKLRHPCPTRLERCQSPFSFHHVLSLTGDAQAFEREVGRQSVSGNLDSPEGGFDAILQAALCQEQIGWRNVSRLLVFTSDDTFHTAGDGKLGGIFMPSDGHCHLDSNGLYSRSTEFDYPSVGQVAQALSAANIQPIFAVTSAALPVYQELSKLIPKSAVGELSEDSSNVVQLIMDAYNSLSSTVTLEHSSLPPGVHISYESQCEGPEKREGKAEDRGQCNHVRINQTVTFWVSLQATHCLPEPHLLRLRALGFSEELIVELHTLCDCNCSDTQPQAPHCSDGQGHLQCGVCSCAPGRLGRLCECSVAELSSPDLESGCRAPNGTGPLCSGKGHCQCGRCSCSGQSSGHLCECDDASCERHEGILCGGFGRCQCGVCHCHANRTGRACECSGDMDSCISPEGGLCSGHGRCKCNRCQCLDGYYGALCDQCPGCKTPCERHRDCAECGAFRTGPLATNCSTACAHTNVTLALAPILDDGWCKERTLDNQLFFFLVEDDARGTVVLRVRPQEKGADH
- assayComment: α4β7-MAdCAM Competition ELISA
- Type: binding
- conditionContext: Table 4-B; read-out: ELISA α4β7 IC50
Bridge positions count the residues as written; N and C are the ends. Square brackets hold non-standard residues; d marks the D form. Peptide text beside a SMILES is read from it. NMeR = CN[C@@H](CCCNC(=N)N)C(=O)O; Pen = CC(C)(S)[C@H](N)C(=O)O
experimentalEndpoint: IC50 (µM)
Write down the numeric answer in µM and omit the unit.

*Q* Which IC50 value belongs to CC(=O)N[C@@H]1C(=O)N(C)[C@@H](CCCNC(=N)N)C(=O)N[C@@H](CO)C(=O)N[C@@H](CC(=O)O)C(=O)N[C@@H]([C@@H](C)O)C(=O)N[C@@H](CC(C)C)C(=O)N[C@H](C(=O)N[C@@H](Cc2c[nH]c3ccccc23)C(=O)N[C@H](CCCCN)C(N)=O)C(C)(C)SSC1(C)C [compound 208, Ac-Pen-N-Me-R-S-D-T-L-Pen-W-k-NH2] (Ac-[Pen][NMeR]SDTL[Pen]W[dK]-NH2; disulfide 1-7) ?
*A* 0.0305

*Q* Which IC50 value belongs to CC(=O)N[C@H]1CSSC[C@@H](C(=O)NCC(=O)N[C@@H](CCC(=O)O)C(N)=O)NC(=O)[C@H](CC(C)C)NC(=O)[C@H]([C@@H](C)O)NC(=O)[C@H](CC(=O)O)NC(=O)[C@H](CO)NC(=O)[C@H](CCCNC(=N)N)NC1=O [compound 194, Ac-C-R-S-D-T-L-C-G-E-NH2] (Ac-CRSDTLCGE-NH2; disulfide 1-7) ?
*A* 0.097

*Q* Which IC50 value belongs to CC(=O)N[C@H]1CSSC[C@@H](C(N)=O)NC(=O)[C@H](CC(C)C)NC(=O)[C@H]([C@@H](C)O)NC(=O)[C@H](CC(=O)O)NC(=O)[C@H](CO)NC(=O)[C@H](CCCNC(=N)N)NC1=O [compound 195, Ac-C-R-S-D-T-L-C-NH2] (Ac-CRSDTLC-NH2; disulfide 1-7) ?
*A* 0.097

*Q* Which IC50 value belongs to CC(=O)N[C@H]1CSSC(C)(C)[C@@H](C(=O)N[C@H](CCCCN)C(N)=O)NC(=O)[C@H](CC(C)C)NC(=O)[C@H]([C@@H](C)O)NC(=O)[C@H](CC(=O)O)NC(=O)[C@H](CO)NC(=O)[C@H](CCCNC(=N)N)N(C)C1=O [compound 202, Ac-C-N-Me-R-S-D-T-L-Pen-k-NH2] (Ac-C[NMeR]SDTL[Pen][dK]-NH2; disulfide 1-7) ?
*A* 0.087

*Q* Which IC50 value belongs to CC(=O)N[C@H]1CSSC[C@@H](C(=O)NCC(=O)N[C@@H](CCC(=O)O)C(=O)N[C@@H](CCCCN)C(=O)O)NC(=O)[C@H](CC(C)C)NC(=O)[C@H]([C@@H](C)O)NC(=O)[C@H](CC(=O)O)NC(=O)[C@H](CO)NC(=O)[C@H](CCCNC(=N)N)N(C)C1=O [compound 199, Ac-C-N-Me-R-S-D-T-L-C-G-E-K-OH] (Ac-C[NMeR]SDTLCGEK-OH; disulfide 1-7) ?
*A* 0.058
